experiment: reduced mouse 2C T cell binding to pMHC/ICAM-1 vesicles – MLPCN validation set, flow cytometry, LFA-1/ICAM-1 modulator project, pilot screen (AID 2523); details: 2C mouse CD8+ T cells, at 7 µM, stronger effect = lower value; measured here: CD8+/vesicle+ event percentage
QUANTITY_NAME: double positive events (%)
Numeric only. Scale: %

I am curious: what double positive events value has been reported for COCCOC(=O)C1=C(C)NC(C)=C(C(=O)OC(C)C)C1c1cccc([N+](=O)[O-])c1 (stereo unspecified) ?
58.9

Reported double positive events, molecule c1cc(-c2ccncc2)ccn1 : ____
58.3

double positive events for CSc1ccc(/C=N/N2CCN(Cc3ccc(C)cc3C)CC2)cc1 ?
61.9

Item O=C(CCC(=O)c1cccs1)c1cccs1 has what recorded double positive events?
60.5

# input molecule: CCCc1c(OCCCCc2nn[nH]n2)ccc(C(C)=O)c1O ; wanted: its double positive events
62.8

Query: double positive events; subject: Cc1cc(O)c(C(=O)Cc2csc(C)n2)c(O)c1
56.7

Data provenance is PubChem BioAssay.
